Let's look at some compounds and their measured pEC50.
target: Bile acid receptor (Homo sapiens, UniProt Q96RI1); experiment: Agonist activity at GST-tagged human FXR-LBD (193 to 472 residues) using biotinylated SRC-1 peptide as substrate incubated for 1 hrs by HTRF assay
Sequence (Q96RI1 whole entry, the tested form may be a part): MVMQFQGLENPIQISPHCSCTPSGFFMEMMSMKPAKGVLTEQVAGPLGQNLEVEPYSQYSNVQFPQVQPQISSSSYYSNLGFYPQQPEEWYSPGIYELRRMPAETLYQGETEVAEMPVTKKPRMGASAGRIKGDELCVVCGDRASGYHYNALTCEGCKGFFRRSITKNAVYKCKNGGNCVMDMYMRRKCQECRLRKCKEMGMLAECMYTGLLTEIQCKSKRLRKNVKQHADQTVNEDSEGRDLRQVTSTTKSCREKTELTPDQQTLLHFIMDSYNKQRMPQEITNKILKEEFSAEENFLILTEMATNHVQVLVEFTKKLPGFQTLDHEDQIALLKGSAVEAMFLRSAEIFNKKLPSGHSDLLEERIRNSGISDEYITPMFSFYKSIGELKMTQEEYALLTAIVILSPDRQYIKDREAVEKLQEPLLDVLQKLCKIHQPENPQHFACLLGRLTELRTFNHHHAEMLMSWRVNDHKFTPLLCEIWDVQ
pEC50 (log units): -log10 of the concentration in mol/L.

Cn1nc(C(=O)N(Cc2ccccc2)Cc2ccc(C(=O)O)cc2)c2c1-c1cc(Cl)ccc1OC2 [NIDUFEXOR]
8.15
CC(=O)NCCN(Cc1ccccc1)C(=O)c1c2c(nn1C)-c1cc(Br)ccc1OC2
5.22

API: the following record is the query input.
Under Bile acid receptor (Homo sapiens, UniProt Q96RI1): report pEC50 of CC(=O)NCCN(Cc1ccccc1)C(=O)c1nn(C(C)C)c2c1COc1ccc(Br)cc1-2 .
5.22

###

assay: Half life in dog at 0.5 mg/kg, iv; assay type: ADME, organism-based, Canis lupus familiaris; settings: in vivo
measurement.name: half-life

Output half-life of Cn1nc(C(=O)N(Cc2ccccc2)Cc2ccc(C(=O)O)cc2)c2c1-c1cc(Cl)ccc1OC2 [NIDUFEXOR]
6.8 h

###

target: Nuclear receptor subfamily 1 group I member 2 (Homo sapiens, UniProt O75469); test: Agonist activity at PXR (unknown origin) incubated for 2 hrs by TR-FRET assay
Sequence (O75469 whole entry): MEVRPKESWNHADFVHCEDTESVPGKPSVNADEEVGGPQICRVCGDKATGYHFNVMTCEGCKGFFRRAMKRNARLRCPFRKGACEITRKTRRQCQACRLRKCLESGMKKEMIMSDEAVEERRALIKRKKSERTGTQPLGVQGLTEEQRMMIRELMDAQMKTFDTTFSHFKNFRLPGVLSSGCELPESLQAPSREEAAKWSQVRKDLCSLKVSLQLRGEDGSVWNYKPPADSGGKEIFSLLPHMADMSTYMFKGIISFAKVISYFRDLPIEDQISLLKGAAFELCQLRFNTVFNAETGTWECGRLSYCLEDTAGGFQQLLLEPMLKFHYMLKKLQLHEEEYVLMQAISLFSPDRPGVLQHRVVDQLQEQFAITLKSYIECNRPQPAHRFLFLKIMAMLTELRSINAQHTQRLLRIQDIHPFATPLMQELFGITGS
measurement.name: EC50

Under Nuclear receptor subfamily 1 group I member 2 (Homo sapiens, UniProt O75469): report EC50 of Cn1nc(C(=O)N(Cc2ccccc2)Cc2ccc(C(=O)O)cc2)c2c1-c1cc(Cl)ccc1OC2 [NIDUFEXOR] .
> 30 µM

###

assay: Half life in Wistar rat at 3 mg/kg, iv; assay type: ADME, organism-based; details: in vivo
Let's look at some compounds and their measured half-life.
# value in h; strip the unit string

Known results for compounds:
Cn1nc(C(=O)N(CCNc2cc(C(=O)O)ccc2F)Cc2cccc(F)c2)c2c1-c1cc(F)ccc1OC2
1.97
Cn1nc(C(=O)N(CC(=O)Nc2cc(C(=O)O)ccc2F)Cc2cccc(F)c2)c2c1-c1cc(F)ccc1OC2
3.6

Output half-life of Cn1nc(C(=O)N(Cc2ccccc2)Cc2ccc(C(=O)O)cc2)c2c1-c1cc(Cl)ccc1OC2 [NIDUFEXOR]
3

###

experiment: Half life in Wistar rat at 30 mg/kg, po; format: ADME, organism-based; details: in vivo
measurement.name: half-life (h)
# value in h; strip the unit string

Output half-life of Cn1nc(C(=O)N(Cc2ccccc2)Cc2ccc(C(=O)O)cc2)c2c1-c1cc(Cl)ccc1OC2 [NIDUFEXOR]
6.3

###

assay: Cmax in Wistar rat at 10 mg/kg, po; format: ADME, organism-based; parameters: dose 10 mg/kg, route oral; conditions: in vivo
measurement.name: Cmax (µM)
# value in µM; strip the unit string

Output Cmax of Cn1nc(C(=O)N(Cc2ccccc2)Cc2ccc(C(=O)O)cc2)c2c1-c1cc(Cl)ccc1OC2 [NIDUFEXOR]
12.4

###

test: Clearance in rabbit at 5 mg/kg, iv; type: ADME, organism-based, Oryctolagus cuniculus; details: in vivo
measurement.name: clearance
Quote the value and follow it with the unit of measurement.

Output clearance of Cn1nc(C(=O)N(Cc2ccccc2)Cc2ccc(C(=O)O)cc2)c2c1-c1cc(Cl)ccc1OC2 [NIDUFEXOR]
5.6 mL/min/kg

###

target: Progesterone receptor (Homo sapiens, UniProt P06401); assay: Agonist activity at Progesterone receptor (unknown origin) incubated for 2 hrs by TR-FRET assay
Sequence (P06401 whole entry): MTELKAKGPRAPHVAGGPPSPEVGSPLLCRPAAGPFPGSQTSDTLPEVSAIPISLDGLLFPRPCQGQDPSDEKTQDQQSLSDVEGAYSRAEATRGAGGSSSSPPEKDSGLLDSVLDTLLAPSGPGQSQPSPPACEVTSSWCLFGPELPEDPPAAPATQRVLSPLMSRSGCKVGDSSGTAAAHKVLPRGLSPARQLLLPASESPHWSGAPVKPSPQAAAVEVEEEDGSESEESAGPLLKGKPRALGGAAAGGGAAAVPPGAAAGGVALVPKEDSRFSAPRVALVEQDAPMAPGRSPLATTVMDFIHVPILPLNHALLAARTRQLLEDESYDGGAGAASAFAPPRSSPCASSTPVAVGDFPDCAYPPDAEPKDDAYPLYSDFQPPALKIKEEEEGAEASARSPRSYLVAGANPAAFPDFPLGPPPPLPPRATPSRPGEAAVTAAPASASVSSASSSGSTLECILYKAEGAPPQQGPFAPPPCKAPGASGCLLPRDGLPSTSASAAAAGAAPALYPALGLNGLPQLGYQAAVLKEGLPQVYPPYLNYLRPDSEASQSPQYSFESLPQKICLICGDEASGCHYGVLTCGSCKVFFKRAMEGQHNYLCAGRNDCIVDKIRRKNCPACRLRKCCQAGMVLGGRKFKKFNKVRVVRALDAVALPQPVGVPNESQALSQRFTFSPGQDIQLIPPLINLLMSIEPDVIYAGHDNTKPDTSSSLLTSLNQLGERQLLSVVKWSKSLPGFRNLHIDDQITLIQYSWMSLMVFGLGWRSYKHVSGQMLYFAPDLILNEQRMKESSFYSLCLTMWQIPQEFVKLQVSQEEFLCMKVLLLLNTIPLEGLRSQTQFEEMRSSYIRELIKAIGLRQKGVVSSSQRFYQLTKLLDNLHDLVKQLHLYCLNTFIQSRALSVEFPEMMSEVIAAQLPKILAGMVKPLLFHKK
measurement.name: EC50

Output EC50 of Cn1nc(C(=O)N(Cc2ccccc2)Cc2ccc(C(=O)O)cc2)c2c1-c1cc(Cl)ccc1OC2 [NIDUFEXOR]
> 30 µM

###

assay: Oral bioavailability in Wistar rat at 3 mg/kg; format: ADME, organism-based; conditions: in vivo
measurement.name: bioavailability (%)
# value in %; strip the unit string

Output bioavailability of Cn1nc(C(=O)N(Cc2ccccc2)Cc2ccc(C(=O)O)cc2)c2c1-c1cc(Cl)ccc1OC2 [NIDUFEXOR]
63

###

test: AUC in Wistar rat at 300 mg/kg, po; type: ADME, organism-based; conditions: in vivo
measurement.name: AUC (µM·h)
# value in µM·h; strip the unit string

Output AUC of Cn1nc(C(=O)N(Cc2ccccc2)Cc2ccc(C(=O)O)cc2)c2c1-c1cc(Cl)ccc1OC2 [NIDUFEXOR]
1040

###

assay: Volume of distribution at steady state in mouse at 3 mg/kg, iv; type: ADME, organism-based; conditions: in vivo, read-out: Vdss
measurement.name: Vd (L/kg)
# value in L/kg; strip the unit string

Output Vd of Cn1nc(C(=O)N(Cc2ccccc2)Cc2ccc(C(=O)O)cc2)c2c1-c1cc(Cl)ccc1OC2 [NIDUFEXOR]
0.9

###

assay: Ratio of AUC in Brain to plasma in Wistar rat […] at 10 mg/kg, po; type: ADME, organism-based; conditions: read-out: Ratio AUC
measurement.name: Kp
Answer as a number with no unit attached.

Output Kp of Cn1nc(C(=O)N(Cc2ccccc2)Cc2ccc(C(=O)O)cc2)c2c1-c1cc(Cl)ccc1OC2 [NIDUFEXOR]
0.05

###

assay: Metabolic stability in human liver microsomes assessed as hepatic extraction ratio; format: ADME, Microsome; conditions: read-out: ERH
measurement.name: hepatic extraction ratio

Output hepatic extraction ratio of Cn1nc(C(=O)N(Cc2ccccc2)Cc2ccc(C(=O)O)cc2)c2c1-c1cc(Cl)ccc1OC2 [NIDUFEXOR]
< 0.21

###

target: Peroxisome proliferator-activated receptor gamma (Homo sapiens, UniProt P37231); experiment: Agonist activity at GAL4-fused PPARgamma (unknown origin) expressed in HEK293T cells incubated for 24 by BrightGlo reagent based assay; assay type: cell-based
Sequence (P37231 whole entry, the tested form may be a part): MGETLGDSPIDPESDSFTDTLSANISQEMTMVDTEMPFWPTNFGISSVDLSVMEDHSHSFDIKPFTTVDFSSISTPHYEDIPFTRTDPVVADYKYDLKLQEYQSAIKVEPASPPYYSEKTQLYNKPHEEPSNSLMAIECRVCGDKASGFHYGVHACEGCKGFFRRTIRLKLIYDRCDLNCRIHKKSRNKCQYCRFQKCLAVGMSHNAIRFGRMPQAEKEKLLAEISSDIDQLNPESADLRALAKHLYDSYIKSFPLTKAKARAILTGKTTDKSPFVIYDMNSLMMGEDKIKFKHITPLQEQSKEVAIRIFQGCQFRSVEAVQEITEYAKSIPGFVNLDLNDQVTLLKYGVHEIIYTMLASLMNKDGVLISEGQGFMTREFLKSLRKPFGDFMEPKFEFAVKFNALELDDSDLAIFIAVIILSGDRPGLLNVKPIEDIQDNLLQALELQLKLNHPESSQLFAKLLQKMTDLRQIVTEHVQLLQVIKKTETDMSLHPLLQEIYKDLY
pEC50: −log10 of the molar value.
measurement.name: pEC50

Output pEC50 of Cn1nc(C(=O)N(Cc2ccccc2)Cc2ccc(C(=O)O)cc2)c2c1-c1cc(Cl)ccc1OC2 [NIDUFEXOR]
< 5.00

###

test: Ratio of AUC in liver to plasma in Wistar rat liver at 10 mg/kg, po; type: ADME, organism-based; conditions: read-out: Ratio AUC
measurement.name: Kp

Output Kp of Cn1nc(C(=O)N(Cc2ccccc2)Cc2ccc(C(=O)O)cc2)c2c1-c1cc(Cl)ccc1OC2 [NIDUFEXOR]
1.5

###

assay: AUC in Wistar rat liver at 10 mg/kg, po; format: ADME, organism-based
measurement.name: AUC (µM·h)
# value in µM·h; strip the unit string

Output AUC of Cn1nc(C(=O)N(Cc2ccccc2)Cc2ccc(C(=O)O)cc2)c2c1-c1cc(Cl)ccc1OC2 [NIDUFEXOR]
36.7

###

assay: Volume of distribution at steady state in dog at 0.5 mg/kg, iv; type: ADME, organism-based, Canis lupus familiaris; settings: in vivo, read-out: Vdss
measurement.name: Vd (L/kg)
# value in L/kg; strip the unit string

Output Vd of Cn1nc(C(=O)N(Cc2ccccc2)Cc2ccc(C(=O)O)cc2)c2c1-c1cc(Cl)ccc1OC2 [NIDUFEXOR]
1.1

###

assay: Volume of distribution at steady state in rabbit at 5 mg/kg, iv; format: ADME, organism-based, Oryctolagus cuniculus; conditions: in vivo, read-out: Vdss
measurement.name: Vd

Output Vd of Cn1nc(C(=O)N(Cc2ccccc2)Cc2ccc(C(=O)O)cc2)c2c1-c1cc(Cl)ccc1OC2 [NIDUFEXOR]
0.6 L/kg

###

assay: Cmax in Wistar rat at 30 mg/kg, po; format: ADME, organism-based; set-up: dose 30 mg/kg, route oral; conditions: in vivo
measurement.name: Cmax (µM)
# value in µM; strip the unit string

Output Cmax of Cn1nc(C(=O)N(Cc2ccccc2)Cc2ccc(C(=O)O)cc2)c2c1-c1cc(Cl)ccc1OC2 [NIDUFEXOR]
28.1

###

biological target: UniProt:Q96RI1; assay: Agonist activity at FXR transfected in human HEK293T cells o-expressing pGL3/hBSEP/luc incubated for 24 hrs by Steady-Glo reagent based luciferase reporter gene assay; format: cell-based
Let's look at some compounds and their measured pEC50.
pEC50 (log units): -log10 of the concentration in mol/L.

CC(=O)NCCN(Cc1ccccc1)C(=O)c1n[nH]c2c1COc1ccc(Br)cc1-2
4.96
Cn1nc(C(=O)N(Cc2ccccc2)Cc2ccc(C(=O)O)cc2)c2c1-c1cc(Cl)ccc1OC2 [NIDUFEXOR]
7.49

Output pEC50 of CC(=O)NCCN(Cc1ccccc1)C(=O)c1nn(C(C)C)c2c1COc1ccc(Br)cc1-2
5.57

###

assay: Cmax in Wistar rat at 300 mg/kg, po; assay type: ADME, organism-based; parameters: dose 300 mg/kg, route oral; settings: in vivo
measurement.name: Cmax (µM)
# value in µM; strip the unit string

Output Cmax of Cn1nc(C(=O)N(Cc2ccccc2)Cc2ccc(C(=O)O)cc2)c2c1-c1cc(Cl)ccc1OC2 [NIDUFEXOR]
141

###

Let's look at some compounds and their measured logD.
test: Lipophilicity, logD of compound at pH 6.8; type: physicochemical; conditions: buffer
Answer as a number with no unit attached.

Cn1nc(C(=O)N(Cc2ccccc2)Cc2ccc(C(=O)O)cc2)c2c1-c1cc(Cl)ccc1OC2 [NIDUFEXOR]
2.7

Output logD of O=C(O)c1cc(F)c2nc(N3[C@@H]4CC[C@H]3C[C@@H](OCc3c(-c5ccccc5OC(F)(F)F)noc3C3CC3)C4)sc2c1 [TROPIFEXOR]
3.2
